Sourced from ChEMBL document CHEMBL1155693

# Tested on: MCF7
# experimental protocol: Cytotoxicity against human MCF7 cells after 48 hrs by sulforhodamine assay
# Format: functional
# conditions used: MCF7, 48 h
*1 amine or outer side, *2 acyl side, *3 side chain or, on linkers, in order; H or OH if unused. Where a SMILES comes first, the peptide text is derived from it. Bridges are numbered along the chain shown (N, C = ends). Roman numbers before positions name the chains, in order. [ ]: non-standard residue; d: D form. Actinocin(1to9) = Cc1c2oc3c(C)ccc(C(=O)[*:2])c3nc-2c(C(=O)[*:1])c(N)c1=O; NMeV = CN[C@H](C(=O)O)C(C)C; Sar = CNCC(=O)O
For each of the compounds below, state its GI50.

Please report the recorded GI50 for Cc1c2oc3c(C)ccc(C(=O)N[C@@H]4C(=O)N[C@H](C(C)C)C(=O)N5CCC[C@H]5C(=O)N(C)CC(=O)N(C)[C@@H](C(C)C)C(=O)O[C@@H]4C)c3nc-2c(C(=O)N[C@@H]2C(=O)N[C@H](C(C)C)C(=O)N3CCC[C@H]3C(=O)N(C)CC(=O)N(C)[C@@H](C(C)C)C(=O)O[C@@H]2C)c(N)c1=O [DACTINOMYCIN] (I: T[dV]P[Sar][NMeV] / II: T[dV]P[Sar][NMeV]; ester I:1-I:C, II:1-II:C; linker I:N-II:N via Actinocin(1to9)) . 500 nM

Please report the recorded GI50 for Cc1c2oc3c(C)ccc(C(=O)N[C@@H]4C(=O)N[C@H](C(C)C)C(=O)N5[C@H](C(=O)N(C)CC(=O)N(C)[C@@H](C(C)C)C(=O)O[C@@H]4C)[C@@H](O)C[C@@H]5C)c3nc-2c(C(=O)N[C@@H]2C(=O)N[C@H](C(C)C)C(=O)N3[C@@H](C)C(=O)C[C@H]3C(=O)N(C)CC(=O)N(C)[C@@H](C)C(=O)O[C@H]2CO)c(N)c1=O [ACTINOMYCIN Z1] . < 500 nM

Please report the recorded GI50 for Cc1c2oc3c(C)ccc(C(=O)N[C@@H]4C(=O)N[C@H](C(C)C)C(=O)N5[C@@H](C)CC[C@H]5C(=O)N(C)CC(=O)N(C)[C@@H](C(C)C)C(=O)O[C@@H]4C)c3nc-2c(C(=O)N[C@@H]2C(=O)N[C@H](C(C)C)C(=O)N3[C@@H](C)C(=O)C[C@H]3C(=O)N(C)CC(=O)N(C)[C@@H](C)C(=O)O[C@H]2CCl)c(N)c1=O [ACTINOMYCIN Z5] . < 100 nM

====

# Test system: MCF7
# experimental protocol: Cytotoxicity against human MCF7 cells after 48 hrs by sulforhodamine assay
# Assay type: functional
# conditions used: MCF7, 48 h
experimental endpoint: GI50

Please report the recorded GI50 for Cc1c2oc3c(C)ccc(C(=O)N[C@@H]4C(=O)N[C@H](C(C)C)C(=O)N5[C@H](C(=O)N(C)CC(=O)N(C)[C@@H](C(C)C)C(=O)O[C@@H]4C)[C@@H](O)C[C@@H]5C)c3nc-2c(C(=O)N[C@@H]2C(=O)N[C@H](C(C)C)C(=O)N3[C@@H](C)C(=O)C[C@H]3C(=O)N(C)CC(=O)N(C)[C@@H](C)C(=O)O[C@H]2CCl)c(N)c1=O [ACTINOMYCIN Z3] . < 100 nM
